- TEST SYSTEM: UniProt:P12928
- Sequence (P12928 whole entry): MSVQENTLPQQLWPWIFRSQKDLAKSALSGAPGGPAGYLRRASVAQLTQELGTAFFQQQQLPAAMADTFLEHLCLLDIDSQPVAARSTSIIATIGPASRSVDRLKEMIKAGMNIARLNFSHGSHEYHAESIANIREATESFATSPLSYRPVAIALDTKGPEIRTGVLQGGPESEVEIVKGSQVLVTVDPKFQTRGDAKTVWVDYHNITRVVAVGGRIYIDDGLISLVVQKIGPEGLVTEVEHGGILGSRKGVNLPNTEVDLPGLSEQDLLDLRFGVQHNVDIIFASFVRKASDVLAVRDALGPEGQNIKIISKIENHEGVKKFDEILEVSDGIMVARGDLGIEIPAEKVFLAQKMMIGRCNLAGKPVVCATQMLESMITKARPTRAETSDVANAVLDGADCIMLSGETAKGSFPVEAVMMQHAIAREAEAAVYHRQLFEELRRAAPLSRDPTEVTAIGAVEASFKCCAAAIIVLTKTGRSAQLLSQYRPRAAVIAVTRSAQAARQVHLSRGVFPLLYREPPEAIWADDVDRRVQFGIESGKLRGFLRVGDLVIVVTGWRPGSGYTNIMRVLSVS
- ASSAY EXPLANATION: Activity at Sprague-Dawley rat pyruvate kinase L assessed as initial enzyme reaction velocity at 0.21 mM by spectrophotometric analysis relative to ADP
ASSAY ENDPOINT: Activity (%)
Report only the number, with the unit % understood.

Record excerpt, results attached:
O=C(CI)NCCCCCCCCNc1ncnc2c1ncn2[C@@H]1O[C@H](COP(=O)(O)OP(=O)(O)O)[C@@H](O)[C@H]1O    13
O=C(CI)NCCCCCNc1ncnc2c1ncn2[C@@H]1O[C@H](COP(=O)(O)OP(=O)(O)O)[C@@H](O)[C@H]1O    8
O=C(CI)NCCCCCCNc1ncnc2c1ncn2[C@@H]1O[C@H](COP(=O)(O)OP(=O)(O)O)[C@@H](O)[C@H]1O    9
CC(=O)NCCCCCCCCNc1ncnc2c1ncn2[C@@H]1O[C@H](COP(=O)(O)OP(=O)(O)O)[C@@H](O)[C@H]1O    9

Proceed to the following item.
Report Activity for O=C(CI)NCCCCCCCNc1ncnc2c1ncn2[C@@H]1O[C@H](COP(=O)(O)OP(=O)(O)O)[C@@H](O)[C@H]1O please.
12
